- target-entity: NUAK family SNF1-like kinase 1 (Homo sapiens) (UniProt O60285)
- Sequence (O60285 whole entry): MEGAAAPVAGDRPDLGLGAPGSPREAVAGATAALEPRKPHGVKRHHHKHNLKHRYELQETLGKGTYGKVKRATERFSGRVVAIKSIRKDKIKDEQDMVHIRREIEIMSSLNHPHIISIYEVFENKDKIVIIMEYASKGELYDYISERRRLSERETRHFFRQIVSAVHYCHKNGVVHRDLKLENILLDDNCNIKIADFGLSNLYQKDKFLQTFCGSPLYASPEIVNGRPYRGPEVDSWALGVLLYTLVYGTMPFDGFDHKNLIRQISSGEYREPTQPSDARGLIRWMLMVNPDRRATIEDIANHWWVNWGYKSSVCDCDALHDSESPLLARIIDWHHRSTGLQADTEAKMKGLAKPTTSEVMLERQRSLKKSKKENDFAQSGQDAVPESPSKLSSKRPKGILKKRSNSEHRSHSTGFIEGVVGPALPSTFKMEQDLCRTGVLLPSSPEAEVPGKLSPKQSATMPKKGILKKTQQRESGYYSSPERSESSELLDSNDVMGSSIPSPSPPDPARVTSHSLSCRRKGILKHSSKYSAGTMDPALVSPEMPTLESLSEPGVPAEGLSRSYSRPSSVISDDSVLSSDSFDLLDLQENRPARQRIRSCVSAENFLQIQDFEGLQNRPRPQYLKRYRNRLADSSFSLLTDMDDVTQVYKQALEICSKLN
- procedure-details: Inhibition of ARK5 at 10 uM
metric: inhibition

Below are worked cases with known answers.
chemical-smiles | inhibition
O=C1Cc2cnn(-c3ccccc3F)c2-c2ccccc2N1 | < 40%
O=C1Cc2cnn(-c3ccc(Cl)cc3)c2-c2ccccc2N1 | < 40%
O=C1Cc2cnn(-c3cccc(Cl)c3)c2-c2ccccc2N1 | < 40%
O=C1Cc2cnn(-c3ccc(Br)cc3)c2-c2ccccc2N1 | < 40%
O=C1Cc2cnn(-c3ccccc3)c2-c2ccccc2N1 | < 40%
O=C1Cc2cnn(-c3cc(Cl)cc(Cl)c3)c2-c2ccccc2N1 | < 40%
O=C1Cc2cnn(-c3ccccc3Br)c2-c2ccccc2N1 | < 40%
CC(C)(C)c1ccc(-n2ncc3c2-c2ccccc2NC(=O)C3)cc1 | < 40%

Okay, next one:
Ask | Provide measured inhibition value, entry: `Cc1ccccc1-n1ncc2c1-c1ccccc1NC(=O)C2`
Reply | < 40%
